- Experiment Notes: AUClast in BALB/c mouse at 10 mg/kg, po measured up to 24 hrs by UPLC-MS/MS analysis
- Format: ADME, organism-based
- Set-up: time < 24 hr, dose 10 mg/kg, route oral
- Test Conditions: in vivo
Assay Readout: AUC(0-t) at 24 h (ng·h/mL)
Please give a number only; it is taken to be in ng·h/mL.

## Task Using the record for O=S(=O)(CCC(F)(F)F)N[C@H]1CC[C@H](Nc2ncc3c(-c4ccccn4)n[nH]c3n2)CC1 , report its AUC(0-t) at 24 h.
## Result 17400

----------
- Experiment Notes: Therapeutic index, ratio of fCmax in conscious unrestrained telemetered Crl:WI(Han) rat at 300 mg/kg/day, po via gavage for 7 days measured on day 1 to fCmax in Leishmania donovani LV9 amastigotes infected BALB/c mouse at 25 mg/kg, po administered bid for 10 days measured on day 1
- Type: organism-based
- Test Conditions: in vivo, read-out: TI
Entries and their selectivity ratio values follow.
Please reply with the value in numeric form only.

[[record]]
entry_smiles = "COc1ccccc1-c1n[nH]c2nc(N[C@H]3CC[C@H](NS(=O)(=O)CCC(F)(F)F)CC3)nc(OC)c12"
recorded_result = 12


Now for another entry.
## Task Using the record for C[C@H]1CN(c2n[nH]c3nc(N[C@H]4CC[C@H](NS(=O)(=O)CCC(F)(F)F)CC4)ncc23)CCO1 , report its selectivity ratio.
## Result 3
